Data origin, for the record: the supplement of paper PMC12764529

# PROTOCOL_DETAILS: folding stability dG unfold from trypsin proteolysis; higher = more stable
Assign T to entries whose folding stability dG unfold meets or exceeds 1 kcal/mol; assign F to the rest.

Examples with answers:
SAGGSAGGSAVYRTEDGRWVLVVEEVDGELTVHVYRRVDGRWELVETYPLEDLSPEARAALSAGGSAGGSAG [r3_241_TrROS_Hall] = T
SAGGSAGGGSMGSVSVSETTTTSTEGSTTTTTTVHTTTVGGTTTTTTTTTTTSPTPGASSPATASAGGSAGG [r6_684_JUSTAS] = T

hey, is folding stability dG unfold for this one >= 1 kcal/mol? SGLAPGEVVPEKFEREITDPETGKKYKVEVTTEIAPENPVRRVTVTTTPPDGTTTTTEEVIPPGEEYTLESA [r9_88_JUSTAS]
F

hey, is folding stability dG unfold for this one >= 1 kcal/mol? SAGKELVLRVRLYRPVPLEEPRVEEREVVVPRKEDEPIEKVVEELLEPDWVLEVEVFDEGKLIERYYTHSAG [r5_278_TrMRF]
F

hey, is folding stability dG unfold for this one >= 1 kcal/mol? SAGSMVLTEDKEFEVDYVLPDGTRLTEPVKVKVKTTTVFLKNNSSLVLTFTTVTLTDPKGNKVTFSGSVSAG [r5_257_JUSTAS]
T

hey, is folding stability dG unfold for this one >= 1 kcal/mol? SAGGSAPPNLQIDIQINPGHGYIEVSVQIPGRHVKASAKLTEPGQLKMDIEFPGNGKEIDITIPISSAGGSA [r15_837_TrROS]
T

====

# PROTOCOL_DETAILS: folding stability dG unfold (combined trypsin and chymotrypsin); higher = more stable
Entries and their folding stability dG unfold

Here is how some sequences turned out for folding stability dG unfold.
SAGGEWHEISIKFPNPEEIEEALREAFPPGMDVDPDVEPNPNGWEVEIEVPRNNPDRVQNAIKEALDSAGGS [r16_43_TrROS] = 0.492 kcal/mol
SAGGSAGGMTLLIRDPETNELVEVTVEEKDGKLTLTVRNKKTGETTEIEIPLDEEPIEIVLLEPSAGGSAGG [r6_465_TrROS_Hall] = 2.43 kcal/mol
SAGEKVEITLVVKVEKDEDGRYRLTEEELREIAKALGLDFEVKSVEIERVPGYLVIRVTVDGKEYEFLSAGG [r19_398_TrROS_Hall] = 2.98 kcal/mol
SAGGSAGGSAGGMTITLVDPENGVKEAEIEEVDGKLRITVVNEETGEKEEIELPLEELLSAGGSAGGSAGGS [r10_772_TrROS_Hall] = 0.477 kcal/mol
SVRPDEPVRITVRFPARPVTRYRARPTGPFLGAEPVPVPSATLTLTVPAADLEAVLDALRPLGVEVEVDPSA [r9_167_TrMRF] = < -1 kcal/mol

Please look at this sequence and report its folding stability dG unfold: PLTFPALVRNPLEDRWEEVTVTLHPDGTLTVTHRGRPLASVRVVTRPPPEVELVPVRDADGVERLGLRTRGS [r1_496_TrMRF]
0.964 kcal/mol

Please look at this sequence and report its folding stability dG unfold: SAGGSAFFRIKVEKNNGKKREIMFPIPENHDPSEAREMVKELAKNIARKQGHPNVPIKVTDIEPFPSAGGSA [r15_463_TrROS]
< -1 kcal/mol

====

# PROTOCOL_DETAILS: folding stability dG unfold from trypsin proteolysis; higher = more stable
OBSERVABLE: folding stability dG unfold (kcal/mol)
# unit: kcal/mol | format: bare number

Here is how some sequences turned out for folding stability dG unfold.
SAGGSAGGSAGGEKKKIAKKIKEELEKKGIKVKKVETSEDYIYITFEDGSKKKIKIDKGSAGGSAGGSAGGS [r10_169_TrMRF] = 2.1
SAGGSAGGSAPPDEGQKWVPVTFPIEFPLPDGNKVKIPIDFWYPKEDGKPIAMQIEWWAKNSAGGSAGGSAG [r3_484_TrROS] = 0.373
SAGGSAGGSAGGGLEEIKEAIKKLPENVKEITIKLKDGSTIKIRVEKDKDGKYKITIEPSAGGSAGGSAGGS [r10_1017_TrROS_Hall] = 2.41

Please look at this sequence and report its folding stability dG unfold: SAGGSAGGSAGGKKPVKITEIHRNPGPNWIRIRIPGNGRPIPIPVPPGKKLTLEDALDFSAGGSAGGSAGGS [r10_844_TrROS]
-0.648

====

# PROTOCOL_DETAILS: folding stability dG unfold (combined trypsin and chymotrypsin); higher = more stable
Entries and their folding stability dG unfold
# unit: kcal/mol | format: bare number

Please look at this sequence and report its folding stability dG unfold: SMLKPGDIVKLPNGPIYVVKKLTISYDPSTSPPKLELELVPLGEPKPVLKEYTLPDGSTKTEIGYYWTGPSA [r9_914_TrMRF]
0.98

Please look at this sequence and report its folding stability dG unfold: SAGGPTAPAGGPLLAPVPVVVPVPVTLTFPNLTPEQAEALAEYFRSLGAEVSYDSATGTLTVRDYRTSAGGS [r16_765_TrMRF]
3.59

====

# PROTOCOL_DETAILS: folding stability dG unfold from chymotrypsin proteolysis; higher = more stable
OBSERVABLE: folding stability dG unfold (kcal/mol)
# unit: kcal/mol | format: bare number

Here is how some sequences turned out for folding stability dG unfold.
SAGGSAGGGPDPSLPPPEVIEVVLPPDTLFRPPGGGYLSPEEVVELAKELEEREGIKATVTIRPSAGGSAGG [r6_162_JUSTAS] = 0.588
SAGGIKVKITDEDGEEKTFKVKDINVNKSPNNGMPSLKIKLANGRPWVIMIPPGRPLEPGDEITVRPLSAGG [r13_390_TrROS] = -0.371
SSTTTTTTDPSGYTYSTTVTTHPDSTTTTTGRVTVEKVGDRPVARTTTTTTTVSPGGATTTTTSTTTTLPSA [r9_69_JUSTAS] = 0.589
SAGGSAGGSAGSMTLSTSTSTTPTSLTTTTTTTTYDPTTGTTTTTSTTTTTALPAAPPSSTASAGGSAGGSA [r18_16_JUSTAS] = 1.64
SKKPKIKIEIEIVEITEVKYDKKTNKITVKVKVKIKIEVEVNGKKKKIEIEIPKNMTLEEILKKLKELLKSA [r9_656_TrROS_Hall] = 1.99

Please look at this sequence and report its folding stability dG unfold: SAGGEEEEFEVVAEIEIEVDGKTYTITIVRDKETDEYRVEIRNKETGETKTITVSAEELEELLKALSSAGGS [r8_469_TrROS_Hall]
4.77

Please look at this sequence and report its folding stability dG unfold: SAGGSAGGGPPLPPPVLVLPARVERVFYDPVTGELTVETVDFPVVIRPDGSVYLGDRWIPPELLSAGGSAGG [r6_514_TrMRF]
1.85

====

# PROTOCOL_DETAILS: folding stability dG unfold (combined trypsin and chymotrypsin); higher = more stable
Assign Yes to entries whose folding stability dG unfold meets or exceeds 2 kcal/mol; assign No to the rest.

Examples with answers:
SAGGITINEDGTITIEVNGKTYTIKLPPGAEITKIEVLEDGTIKITLRINGKTVTLELKVYKEGEEPSAGGS [r16_635_TrROS_Hall] = Yes
SAGGSAGGSAGGSMLTVRSSSTTPLPDGSTVTTYEVNDKPYLVRVDPNGPVVTVKPLSLLSAGGSAGGSAGG [r7_772_JUSTAS] = No
SAGGSAGGSAKPLKKLVLLLKVKGPFEEVEKILNEEFGVKKIVAFKDPETDEVYALIYLGDPSAGGSAGGSA [r18_275_TrMRF] = Yes
SAGGSAGGSMTVDTTYDPSTDRVTLTVTIPAPDGSELVRTVQSTGDPEAAAAAAAAAVAAAAASAGGSAGGS [r20_33_JUSTAS] = No

hey, is folding stability dG unfold for this one >= 2 kcal/mol? SAGMPKTTVETEIRFVETEEGIEAVAEVRTETETRVVVIPGHLGPEEAIEVLEKLLEEEGLELSRVEIGSAG [r5_305_TrMRF]
No

hey, is folding stability dG unfold for this one >= 2 kcal/mol? SAGMKVILIIAPEEKIEEIFEEIKKIAEEHGLDLKLDKIEPLPEKGYLVIVTVKNPESDETTVILVLVPSAG [r5_41_TrMRF]
Yes

hey, is folding stability dG unfold for this one >= 2 kcal/mol? SAGGSAGGSMEVTVTPLPDGSLLVTVTVTTSSTPVPVELRFPPSASLEEIRAAAEARAAEVAASAGGSAGGS [r12_69_JUSTAS]
No

hey, is folding stability dG unfold for this one >= 2 kcal/mol? SAGGSAGGSWIILIHWPNGKEIPIFFKSPEEANEIAEEIKKIFQEKGMEPVSVEIYPIKPGQMSAGGSAGGS [r12_301_TrROS]
Yes

hey, is folding stability dG unfold for this one >= 2 kcal/mol? SAGGPPKKIEDIKIEDWRYDPENNQVTNTIELENDNGKEREIDVQMPNEDMEDMPPEEMLKAAKDFIDSAGG [r13_512_TrROS]
No

hey, is folding stability dG unfold for this one >= 2 kcal/mol? SLGPNEDAILEEEAIIDIDPEAFRKAFGFDVPEDTKVLIITRRRVPANGDIETDPEIYIYDPKTKKFYPISA [r9_349_TrMRF]
Yes

hey, is folding stability dG unfold for this one >= 2 kcal/mol? SAGGYVRIRIELQEKRKPPDGKQQQRKKKITITVRLPPNEEMRMPDGKDIDPGKSAEELADYALDNLSAGGS [r16_440_TrROS]
No

hey, is folding stability dG unfold for this one >= 2 kcal/mol? SAGGSANLPPGQPKIITITIPLGEEVRNPDGEPMTPEDIADNFQERFGNIEVEKSPNGWLEVTFWLSAGGSA [r15_645_TrROS]
No
